# run.description: Metabolic stability in mouse liver microsomes
# reported.conditions: mouse liver microsomes; 60 min with NADPH
# maps each entry to its Remaining (T = 60 min)
parameter.measured: Remaining (T = 60 min) (%)

molecule | unit.descriptor | endpoint.result
Cn1c2c(c3ccc(Cl)c(F)c31)CN(C(=O)CO)CC2 [TDI-6570, reference compound] | % | 0.0
Cn1ccc(-c2cc(Cl)c(Cl)c3oc4c(c23)CN(C(=O)CO)CC4)n1 | % | 6.3
Cn1cc(-c2cc(Cl)c(Cl)c3oc4c(c23)CN(C(=O)CN)CC4)cn1 | % | 72.5
O=C(O)Cc1ccccc1Nc1c(Cl)cccc1Cl [Diclofenac, reference compound] | % | 33.1
